The measurements presented in this section are drawn from ChEMBL document CHEMBL1146101.

organism: Homo sapiens; test: Selectivity for ERbeta over ERalpha
Exercise: for every item that follows, state its recorded Ratio.
// no unit string in output, number only

Exercise: Consider the molecule Oc1ccc(C(=C2CCCC(CCCF)C2)c2ccc(O)cc2)cc1 (centres undefined) and give its measured Ratio.
Solution: 0.57

Exercise: I'd like to know its Ratio. The molecule in question is OCCC1CCCC(=C(c2ccc(O)cc2)c2ccc(O)cc2)C1 (centres undefined)
Solution: 1.7

Exercise: Can you look up the measured Ratio of COC(=O)C1CCCC(=C(c2ccc(O)cc2)c2ccc(O)cc2)C1 (centres undefined) for me?
Solution: 1.5

Exercise: Ratio lookup needed for Oc1ccc(C(=C2CCCC(CCF)C2)c2ccc(O)cc2)cc1 (centres undefined) , thanks.
Solution: 1.1

Exercise: Reported Ratio for CCOCC1CCC(=C(c2ccc(O)cc2)c2ccc(O)cc2)CC1 (centres undefined) : what is it?
Solution: 0.58

Exercise: Value lookup for Ratio; key = Oc1ccc(C(=C2CCC(CCF)CC2)c2ccc(O)cc2)cc1 (centres undefined)
Solution: 1.2

Exercise: // lookup Ratio for Oc1ccc(C(=C2CCC(CF)CC2)c2ccc(O)cc2)cc1 (centres undefined)
Solution: 2.3

Exercise: Give the measured Ratio of "Oc1ccc(C(=C2CCCCC2)c2ccc(O)cc2)cc1" .
Solution: 2.3

Exercise: I'd like to know its Ratio. The molecule in question is OCCCC1CCCC(=C(c2ccc(O)cc2)c2ccc(O)cc2)C1 (centres undefined)
Solution: 0.98

Exercise: // returns reported Ratio for input OCC1CCCC(=C(c2ccc(O)cc2)c2ccc(O)cc2)C1 (centres undefined)
Solution: 1.6

Exercise: May I ask what Ratio has been recorded for CCC1CCC(=C(c2ccc(O)cc2)c2ccc(O)cc2)CC1 (centres undefined) ?
Solution: 1.2

Exercise: I'd like to know its Ratio. The molecule in question is COC(=O)CC1CCC(=C(c2ccc(O)cc2)c2ccc(O)cc2)CC1 (centres undefined)
Solution: 0.16

Exercise: Report Ratio for Oc1ccc(C(=C2CCC(O)CC2)c2ccc(O)cc2)cc1 (centres undefined) please.
Solution: 0.94

Exercise: Query: Ratio; subject: COC(=O)C(C(=O)OC)C1CCCC(=C(c2ccc(O)cc2)c2ccc(O)cc2)C1 (centres undefined)
Solution: 0.012
